Target: T1, human IL-36R extracellular domain expressed with a C-terminal mouse IgG2a Fc tag (hIL-36R-mFc) (human; mouse, UniProt Q9HB29 20-337)
T1 construct: not shown: mouse IgG2a Fc, E98-K330
T1 sequence (looked up): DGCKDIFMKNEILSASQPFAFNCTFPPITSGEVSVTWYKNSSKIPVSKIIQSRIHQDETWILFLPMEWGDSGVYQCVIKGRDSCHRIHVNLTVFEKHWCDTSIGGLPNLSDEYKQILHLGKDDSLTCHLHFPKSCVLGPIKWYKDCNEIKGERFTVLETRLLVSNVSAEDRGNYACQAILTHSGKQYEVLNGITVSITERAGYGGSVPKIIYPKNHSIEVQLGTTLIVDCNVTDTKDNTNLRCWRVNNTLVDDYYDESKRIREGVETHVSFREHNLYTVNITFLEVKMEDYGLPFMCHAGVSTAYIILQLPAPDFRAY
Test: SPR Biacore 4000, mAb captured on anti-hFc, 37C
kon by entry:
# output: bare number, implied unit M⁻¹ s⁻¹

binder="H4H14757P (antibody, human IgG4 S228P, kappa, V domains shown, Fully human anti-IL-36R antibody) VH: EVQLVESGGGLVQPGRSLRLSCTASGFTFDDYAMHWVRQAPGKGLEWVSGIRWNGGSIGYVDSVKGRFTISRDNAKKSLHLQMNSLKTEDTALYYCAKDIGDILTGFYGEYGMDVWGQGTTVTVSS VL: DIQMTQSPSSLSASEGDRVTITCRASQSISSYLNWYQQKAGKAPNLLIYAASSLQSGVPSRFSGSGSGTEYTLTISSLQPEDFATYYCQQSYIIPYTFGQGTKLEIKR" value_measured=616000

Field request: kon | item: H4H14700P2 (antibody, human IgG4 S228P, kappa, V domains shown, Fully human anti-IL-36R antibody) VH: EVQLVESGGGLVQPGRSLRLSCAASGFTFDDYAMHWVRQTPGKGLEWVSVISWNSDVIAYSDSVKGRFTISRDNAKNSLYLQMNSLGTEDTALYYCAKGHNWNFFDYWGQGTLVTVSS VL: EIVLTQSPATLSLSPGERATLSCRASQSVSSYLAWYQQKPGQAPRLLIYNVANRATDIPARFSGSGSGTDFTLTISGLEPEDFAVYFCQQRSNWPLTFGGGTKVEIKR 535000

Entry source: patent US20200017592A1
